experiment: SUPPLEMENTARY: PAMPA permeability assay; type: physicochemical; conditions: read-out: Permeability
Entries are grouped by Papp into these classes: group A (below 1 ×10⁻⁶ cm/s), group B (1 ×10⁻⁶ cm/s to below 3 ×10⁻⁶ cm/s), group C (3 ×10⁻⁶ cm/s or more)

O=C(COc1ccccc1)N1CCC(n2c(COc3ccccc3)nc3cc(F)ccc32)CC1
group B
COc1ccc(Cl)cc1S(=O)(=O)N1CCS(=O)(=O)c2ccc(C(=O)Nc3ccc(C(=O)O)c(F)c3)cc21
group A
O=C1COc2ccc(-c3nc([C@H]4CCCCN4C(=O)COc4ccccc4)no3)cc2N1
group C
COc1ccc(Cl)cc1S(=O)(=O)c1cn(CCCO)c2ccc(C(=O)Nc3ccccc3)cc12
group A
O=C(COc1ccccc1)N1CCCC[C@@H]1c1noc(-c2cccc(-n3cn[nH]c3=O)c2)n1
group C
O=C(O)c1ccc(NC(=O)c2ccc3c(c2)N(Cc2cccc(Cl)c2)C(=O)CS3(=O)=O)cc1
group B
O=C(O)c1ccc(C(=O)Nc2nn(Cc3ccc(OC(F)F)cc3)c3ccc(F)cc23)cc1
group C
CCOC(=O)C1CN(S(=O)(=O)c2cc(Cl)ccc2OC)c2cc(C(=O)Nc3cccc(F)c3)ccc2O1 (centres undefined)
group B
O=C([C@H]1CCCCN1C(=O)COc1ccccc1)N1Cc2ccc(OCC3CC3)cc2C1
group B
